Biological target: P-glycoprotein (Homo sapiens (Human), UniProt P08183)
Sequence (P08183 whole entry): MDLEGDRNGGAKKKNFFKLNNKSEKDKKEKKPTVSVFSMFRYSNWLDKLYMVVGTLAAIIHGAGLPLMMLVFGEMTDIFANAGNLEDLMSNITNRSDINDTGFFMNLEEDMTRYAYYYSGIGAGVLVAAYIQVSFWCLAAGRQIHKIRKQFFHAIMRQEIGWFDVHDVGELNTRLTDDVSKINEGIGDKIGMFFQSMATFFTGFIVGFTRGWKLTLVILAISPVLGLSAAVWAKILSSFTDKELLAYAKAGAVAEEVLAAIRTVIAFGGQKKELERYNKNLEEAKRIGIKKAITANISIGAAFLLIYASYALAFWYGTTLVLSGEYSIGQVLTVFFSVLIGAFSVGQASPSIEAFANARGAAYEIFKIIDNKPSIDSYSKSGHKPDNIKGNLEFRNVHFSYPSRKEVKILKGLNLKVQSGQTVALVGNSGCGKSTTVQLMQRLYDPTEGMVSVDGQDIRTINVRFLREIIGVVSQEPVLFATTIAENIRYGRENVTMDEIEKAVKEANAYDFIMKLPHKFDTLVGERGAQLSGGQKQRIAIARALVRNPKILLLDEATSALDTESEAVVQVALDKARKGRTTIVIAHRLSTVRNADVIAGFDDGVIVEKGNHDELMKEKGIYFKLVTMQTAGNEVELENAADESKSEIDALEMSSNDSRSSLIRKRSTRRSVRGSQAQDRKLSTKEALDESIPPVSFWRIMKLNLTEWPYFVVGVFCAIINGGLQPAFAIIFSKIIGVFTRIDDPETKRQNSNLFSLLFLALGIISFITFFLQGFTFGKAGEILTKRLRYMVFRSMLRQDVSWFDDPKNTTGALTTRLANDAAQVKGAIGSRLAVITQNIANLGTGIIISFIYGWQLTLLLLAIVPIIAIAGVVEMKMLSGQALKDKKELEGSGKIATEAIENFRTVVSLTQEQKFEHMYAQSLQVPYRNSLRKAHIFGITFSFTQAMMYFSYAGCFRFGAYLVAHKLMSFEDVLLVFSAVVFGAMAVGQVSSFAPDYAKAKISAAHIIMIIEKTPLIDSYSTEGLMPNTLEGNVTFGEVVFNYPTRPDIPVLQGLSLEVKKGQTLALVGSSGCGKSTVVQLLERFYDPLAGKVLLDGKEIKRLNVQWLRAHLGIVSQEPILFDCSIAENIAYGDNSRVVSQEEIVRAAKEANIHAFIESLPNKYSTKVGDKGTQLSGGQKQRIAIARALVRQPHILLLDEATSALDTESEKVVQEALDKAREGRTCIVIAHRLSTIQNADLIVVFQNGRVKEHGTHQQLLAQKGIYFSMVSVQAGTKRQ
Experiment: P-glycoprotein inhibitory activity: MTT cell growth assay in P-gp overexpressing MES-SA/DX5 cells with docetaxel or paclitaxel
Conditions: 3 days, with 100 nM docetaxel or 200 nM paclitaxel, MTT readout
pEC50: −log10 of the molar value.
Each entry below lists one item and its recorded pEC50 value.

Check out these entries, answers already filled in.
[[record]]
mol = "COc1cc2c(cc1OC)CN(CCc1ccc(-n3nnc(-c4cc(OCCc5cccnc5)ccc4NC(=O)c4cc(=O)c5ccccc5o4)n3)cc1)CC2"
property = "pEC50"
obs_value = "6.60 to 7.00"

[[record]]
mol = "COc1cc(NC(=O)c2cc(=O)c3ccccc3o2)c(-c2nnn(-c3ccc(CCN4CCc5ccc(-n6ccnc6)cc5C4)cc3)n2)cc1OC"
property = "pEC50"
obs_value = "< 6.00"

[[record]]
mol = "COc1cc2c(cc1OC)CN(CCc1ccc(-n3nnc(-c4cc(OCc5cccnc5)ccc4NC(=O)c4cc(=O)c5ccccc5o4)n3)cc1)CC2"
property = "pEC50"
obs_value = "> 7.00"


Reading of pEC50 for COc1cc(NC(=O)c2cc(=O)c3ccccc3o2)c(-c2nnn(-c3ccc(CCN4CCc5cnccc5C4)cc3)n2)cc1OCc1ccccc1 with P-glycoprotein (Homo sapiens (Human), UniProt P08183): > 7.00

Reading of pEC50 for COc1cc(NC(=O)c2cc(=O)c3ccccc3o2)c(-c2nnn(-c3ccc(CCN4CCc5cc(-n6ccnc6)ccc5C4)cc3)n2)cc1OC with P-glycoprotein (Homo sapiens (Human), UniProt P08183): < 6.00

Values were extracted from patent US11739089B2.
